- system_under_test: RmlA (glucose-1-phosphate thymidylyltransferase, gene 1774) (Pectobacterium actinidiae, UniProt A0ABW8GFN0, G107A/D108A/N109A/G144A/E159A/V170A/E196A)
- assay_setup: read-out: binding affinity; 50 mM Tris-HCl, 1 mM MgCl2, 0.05% Tween 20, pH 8.0; ligand as disodium salt
quantity_measured: pKd
In simple prose, pKd is minus the logarithm base ten of a concentration in moles per litre.

Cc1cn([C@H]2C[C@H](O)[C@@H](COP(=O)(O)OP(=O)(O)OP(=O)(O)O)O2)c(=O)[nH]c1=O ... 2.57

Exam item: Using the record for O=P(O)(O)O[C@H]1O[C@H](CO)[C@@H](O)[C@H](O)[C@H]1O , report its pKd.
Marked response: 2.05
